Source: the DeepSol protein solubility set

- experimentDescription: soluble on expression in E. coli; label from the status in PepcDB or PDB records
quantity: soluble on expression in E. coli

MGSDKIHHHHHHMSDTDKQAFLTSVSSKEQVKKVIEPRKVTKCPHCQSTHFVKNGKDCGNQRFLCRDCKKSFVEQTGTILYNTQKDIEVWEKYIHCMIEKYPLRKCAEICKINLATAFTWRHKILDALQNMMNEVELDGIVQADETYSTISYKGHHKNFNLPRPAHKRGTRATKRGISKEQVCVPCGINLDGKSVARISNLGKPSLKNIN: not soluble
MGSDKIHHHHHHMEQLQKRKIYDTTASNASTGILNGKSSNVLNWDDVRFSWAYPLYKNMLANFWTPFEINMSHDAKQFPTLTETEQEAFKKIIGLLAFLDSVQTDYSMRAAEYLTDSSLAALMSVLSFQEVVHNQSYSYVLSSLVPKATQDEIFEYWKHDDVLKERNEFIIDGYEKFVDNPTPKTFLESIVYDVILEGLNFYSGFAFFYNLARNQKMVSTSTMINYINRDEQLHVYLFTNIFKELLVEFPELNTEETKTFVKTTLMKAADLEKDWFRYIIGDKIPGINPEDMETYISFIANKRAVQLGMEKPYPEIKHNPMKWIRAYEDVNSGKSDFFEQKSRQYAKVSADNGFDEL: not soluble
